Can you tell me z-score for the items I'm about to list?
Test Description: fission yeast growth modulation, primary screen, strain 972, OD600, 24 h, no modulator (AID 1090);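 further: basal condition with compound alone and no growth modifier present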
Condition Parameters: S. pombe 972 growth, higher = more signal, called active from +8 up or from −8 down
The source made the active and inactive calls.

**Q:** # input molecule: COCCOC(=O)N1C(=O)[C@@]2(c3cc(C#CC4(O)CCCCCC4)ccc31)[C@H](C(=O)N1CCc3cc(OC)c(OC)cc3C1)[C@H]1C(=O)O[C@H](c3ccccc3)[C@H](c3ccccc3)N1[C@@H]2c1ccc(O)cc1 ; wanted: its z-score
**A:** -0.929 (inactive)

**Q:** # input molecule: CO[C@H]1O[C@H](CO)[C@@H](OC(=O)Nc2ccc(C(F)(F)F)cc2)[C@H](OC(=O)Nc2ccccc2-c2ccccc2)[C@H]1OC(=O)Nc1ccccc1-c1ccccc1 ; wanted: its z-score
**A:** 2.36 (inactive)

**Q:** # input molecule: C[N+](C)(C)CCCC[C@@H]1NC(=O)[C@H]2C[C@@H](C(=O)NCCCCCNC(=O)CS)[C@@H](c3ccc(O)cc3)N2C1=O ; wanted: its z-score
**A:** -0.839 (inactive)

**Q:** # input molecule: CC(C)C(=C=CC[C@@H](O)c1cccc(OCCO)c1)CCO ; wanted: its z-score
**A:** -0.0344 (inactive)

**Q:** # input molecule: COC(=O)Cn1c(C(=O)N(C)C)cc2c1C[C@H]1CN(C(=O)c3ccccc3)[C@@](Cc3ccc(OC)cc3)(C(=O)OC)[C@@H]21 ; wanted: its z-score
**A:** 0.833 (inactive)

**Q:** # input molecule: CCOC(=O)C[C@H]1[C@H](OC(=O)c2cc3ccccc3oc2=O)[C@@H](NC(=O)C2CCCCC2)c2cc(OCCCO)ccc2N1C(=O)Cc1ccc(OC)cc1 ; wanted: its z-score
**A:** 0.222 (inactive)

**Q:** # input molecule: CC1(C)OC[C@@]23C=C(Br)[C@@H](C[C@H]12)[C@@]1(CO1)C3=O ; wanted: its z-score
**A:** -1.24 (inactive)

====

Tested on: XIP peptide (Xip251-270) binding
Test Description: small-molecule binders of XIP peptide, primary screen, biochemical, small-molecule microarray, fluorescence 635/667 nm, 0.1 µg/mL protein (AID 1182)
Condition Parameters: fluorescent protein binding, 635 nm, higher = more signal, called active from +8 up or from −8 down
Observable: composite z-score
The response must contain the number and no unit.

**Q:** Lookup: composite z-score / XIP peptide (Xip251-270) binding / CC(C)CNC(=O)[C@@H]1c2ccccc2C(=O)N(C2Cc3ccccc3C2)[C@H]1c1ccc(CO)cc1
**A:** 0.45

**Q:** Lookup: composite z-score / XIP peptide (Xip251-270) binding / CCCCC(=C=CC[C@@H](O)c1ccc(OCCO)cc1)C[C@@H](O)c1ccccn1
**A:** 0.0856

**Q:** Lookup: composite z-score / XIP peptide (Xip251-270) binding / CCCC[C@@H]1C[C@H]1[C@@H](NC(=O)c1ccc(C(F)(F)F)cc1)c1ccc(C(=O)OC)cc1
**A:** -0.0437

**Q:** Lookup: composite z-score / XIP peptide (Xip251-270) binding / COCCCNC(=O)[C@@]1(Sc2ccc(C)cc2)CC(=O)N(C2CCCCC2)[C@@H]1c1ccc(CO)cc1I
**A:** -0.159

**Q:** Lookup: composite z-score / XIP peptide (Xip251-270) binding / COc1cc2c(cc1O)C(c1ccc(CN3CCCC3)cc1)N(Cc1cccc(OC(F)(F)F)c1)CC2 (stereo not given)
**A:** -0.153

# credit: PubChem BioAssay
